Molecular target: T1, RSV F A L203I (RSV A, strain A2, UniProt P03420 26-574)
T1 construct: whole, on cells
Assay: FACS, % binding to RSV F A variants

binder	% binding / %
MPK201-v4.1 (antibody, V domains shown) VH: QVQLVQSGAEVKKPGESLKISCQGSGYSFISYWIGWVRQKPGKGLEWMGIIYPFDSETKYSPSFQGHVTFSADKSINTAYVQWSSLRASDTAMYYCARFTFGLAVTTADVSGEGQAFEIWGQGTMVTVSS VL: EIVMMQSPATLSVSPGERATLSCRASQSVAGNLAWYQQRPGQAPRLLVYGASTRASGVPARFSGSGSETEFTLTISSLQSEDFAVYYCHHYSDWPQAFGQGTRLDIK	13.1
